# target: HLA-A*0201 (Homo sapiens, UniProt P04439, D140Y/D185E/D98H/E176V/E277Q/G131W/G231S/I119V/I121R/I166T/I218V/L300P/L318F/N151K/N90K/P208A/P217A/Q86G/Q94H/R138H/R169H/T345S)
# procedure_summary: ED50 (M)
Where no end group is shown, it is not given here.
quantity: pEC50
Give bare numbers, as −log10 of the molar value.

ordered_residues	pEC50
SMLQHLIGL [3 | Prame 425-433 (L426M)]	6.01
YLLQHLIGL [10 | Prame 425-433 (S425Y)]	6.26
FLLQHLIGL [9 | Prame 425-433 (S425F)]	6.36

# evaluate next
Q: Hello, please tell me recorded pEC50 for this one: TLLQHLIGL [11 | Prame 425-433 (S425T)]
Result: 5.84
